Where these numbers come from: ChEMBL document CHEMBL5046218

Target: D(2) dopamine receptor (Homo sapiens, UniProt P14416)
Sequence (P14416 whole entry): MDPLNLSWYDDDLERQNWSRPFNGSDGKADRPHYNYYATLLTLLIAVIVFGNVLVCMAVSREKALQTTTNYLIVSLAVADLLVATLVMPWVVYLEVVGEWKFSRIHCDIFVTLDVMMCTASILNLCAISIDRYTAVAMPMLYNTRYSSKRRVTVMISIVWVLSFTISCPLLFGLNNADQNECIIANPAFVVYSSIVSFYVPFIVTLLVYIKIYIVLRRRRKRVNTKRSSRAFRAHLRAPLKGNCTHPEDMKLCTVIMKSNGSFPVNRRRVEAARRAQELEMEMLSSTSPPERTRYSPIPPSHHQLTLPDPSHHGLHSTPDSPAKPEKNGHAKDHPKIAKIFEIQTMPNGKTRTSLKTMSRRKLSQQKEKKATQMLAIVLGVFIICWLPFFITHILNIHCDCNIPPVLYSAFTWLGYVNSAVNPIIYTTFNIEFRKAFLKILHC
Experiment: Displacement of [3H]-(R)-(+)7-OH-DPAT from human dopamine D2 receptor expressed in HEK293 cell membranes incubated for 90 mins by microbeta scintillation counting analysis
Parameters: species or system Membrane
Criterion: Ki strictly less than 40 nM. Met: YES. Not met: NO.

Answered examples (4):
INSERT INTO measurements (compound, assigned_category) VALUES
  ('CCc1cc(Cl)c(OC)c(C(=O)NCC2CCCN2CCCCNCCC(C(=O)N(C)C)(c2ccccc2)c2ccccc2)c1O (stereo unspecified)', 'NO'),
  ('CCc1cccc(N2CCN(CC(O)CCNCCC(C(=O)N(C)C)(c3ccccc3)c3ccccc3)CC2)c1Cl (stereo unspecified)', 'NO'),
  ('CCc1cccc(N2CCN(CCC(C(=O)N(C)C)(c3ccccc3)c3ccccc3)CC2)c1Cl', 'YES'),
  ('Oc1cccc([C@@]23CCC[C@@H]([C@H]2O)N(C/C=C/c2ccccc2)CC3)c1', 'NO');

**Query** Is the reported Ki for `Oc1cccc([C@]23CCC[C@H](NCC2)[C@@H]3O)c1` strictly below 40 nM?
**Result** NO

**Query** Ki strictly < 40 nM for this compound? `CCOC(=O)/C=C1\[C@@H]2CCC[C@@]1(c1cccc(O)c1)CCN2CCc1ccccc1`
**Result** NO

**Query** Consider `CN(C)C(=O)C(CCN1CCN(c2cccc(Cl)c2Cl)CC1)(c1ccccc1)c1ccccc1` . Does its Ki lie strictly below 40 nM?
**Result** YES

**Query** Just wondering, is Ki of CN(C)C(=O)C(CCNCCC(O)CN1CCN(c2cccc(Cl)c2Cl)CC1)(c1ccccc1)c1ccccc1 (stereo unspecified) below 40 nM?
**Result** NO

**Query** Hello, I'm reviewing records and need to know if Ki of `N#CC(CCNCCCCN1CCN(c2cccc(Cl)c2Cl)CC1)(c1ccccc1)c1ccccc1` is below 40 nM. Could you check?
**Result** YES

**Query** # strict comparison: is reported Ki < 40 nM? input = `Oc1cccc([C@]23CCC[C@H](NCC2)[C@H]3O)c1`
**Result** NO

**Query** I'd appreciate it if you could check whether `CCc1cccc(N2CCN(CCCCNCCC(C(=O)N(C)C)(c3ccccc3)c3ccccc3)CC2)c1Cl` has Ki smaller than 40 nM.
**Result** NO
